Let's look at some molecules and their measured fraction unbound.
# ASSAY_NAME: Plasma protein binding assay (PPB), equilibrium dialysis
# Assay type: in vitro ADME
# CONDITION_SET: bovine, 10% FCS in PBS, read-out: PPB 10% FCS (% fu)
ATTRIBUTE_MEASURED: fraction unbound

>>> reading("CO[C@@H]1C[C@@H]([C@H](C)Oc2nc(-c3onc4c3CCC[C@@]43CCCc4sc(N)c(C#N)c43)nc3c2n(C)c(=O)n3[C@@H]2CCCOC2)N(C)C1")
0.15
>>> reading("CC(C)n1c(=O)n([C@@H]2CCOC2)c2nc(-c3onc4c3CCC[C@@]43CCCc4sc(N)c(C#N)c43)nc(O[C@@H](C)[C@@H]3CCCN3C)c21")
0.07
>>> reading("C[C@H](Oc1nc(-c2noc3c2CCC[C@@]32CCCc3sc(N)c(C#N)c32)nc2c1CNC[C@]21CCOC1)[C@@H]1CCCN1C")
0.3
>>> reading("CO[C@@H]1C[C@@H]([C@H](C)Oc2nc(-c3noc4c3CCC[C@@]43CCCc4sc(N)c(C#N)c43)nc3c2n(C)c(=O)n3[C@@]23COC[C@@H]2C3)N(C)C1")
0.07
>>> reading("CO[C@@H]1C[C@@H]([C@H](C)Oc2nc(-c3onc4c3CCC[C@@]43CCCc4sc(N)c(C#N)c43)nc3c2CN(C2COC2)C[C@]32CCOC2)N(C)C1")
0.24
>>> reading("C[C@H](Oc1nc(-c2noc3c2CCC[C@@]32CCCc3sc(N)c(C#N)c32)nc2c1CN(C1COC1)C[C@]21CCOC1)[C@@H]1CC[C@H](C)N1C")
0.1
>>> reading("C[C@H](Oc1nc(-c2noc3c2CCC[C@@]32CCCc3sc(N)c(C#N)c32)nc2c1CCC21CCOC1)[C@@H]1CCCN1C (stereo partly shown)")
0.01
>>> reading("C[C@H](Oc1nc(-c2onc3c2CCC[C@@]32CCCc3sc(N)c(C#N)c32)nc2c1n(C)c(=O)n2[C@@H]1CCOC1)[C@@H]1C[C@H](F)CN1C")
0.15
>>> reading("C[C@H](Oc1nc(-c2onc3c2CCC[C@@]32CCCc3sc(N)c(C#N)c32)nc2c1n(C)c(=O)n2[C@H]1CCC[C@@H]1O)[C@@H]1CCCN1C")
0.05
>>> reading("Cc1nn([C@@H]2CCOC2)c2nc(-c3onc4c3CCC[C@@]43CCCc4sc(N)c(C#N)c43)nc(O[C@@H](C)[C@@H]3CCCN3C)c12")
0.11
>>> reading("CCn1c(=O)n([C@@H]2CCCOC2)c2nc(-c3onc4c3CCC[C@@]43CCCc4sc(N)c(C#N)c43)nc(OCC34CCCN3CCC4)c21")
0.07
>>> reading("C[C@H](Oc1nc(-c2onc3c2CCC[C@@]32CCCc3sc(N)c(C#N)c32)nc2c1n(C)c(=O)n2[C@H]1CO[C@@H](C)C1)[C@@H]1CCCN1C")
0.13
>>> reading("C[C@H](Oc1nc(-c2noc3c2CCC[C@@]32CCCc3sc(N)c(C#N)c32)nc2c1CCO[C@]21CCOC1)[C@@H]1CCCN1C")
0.09
>>> reading("C[C@H](Oc1nc(-c2onc3c2CCC[C@@]32CCCc3sc(N)c(C#N)c32)nc2c1n(C)c(=O)n2[C@@]12COC[C@@H]1C2)[C@@H]1CC[C@H](C)N1C")
0.2
>>> reading("CO[C@H]1C[C@H](n2c(=O)n(C)c3c(O[C@@H](C)[C@@H]4CCCN4C)nc(-c4onc5c4CCC[C@@]54CCCc5sc(N)c(C#N)c54)nc32)C1")
0.13
>>> reading("C[C@H](Oc1nc(-c2onc3c2CCC[C@@]32CCCc3sc(N)c(C#N)c32)nc2c1n(C)c(=O)n2[C@H]1CCOC1)[C@@H]1CCCN1C")
0.25

src = patent US20250019385A1
